System: MOLT-4 leukemia
Test: NCI-60 one-dose screen, 48 h
Conditions: 10 µM unless noted
About 83,000 compounds went through this panel and 20% of them were active in at least one assay; those are over-represented in the sample as a whole. Calls of active or inactive are those of the source. How the source made its calls: active means growth percent below 10; inactive means the rest.
Give your call using only these classes: Y for active, N for inactive

Write down the call the test reported for this molecule. Item: `Nc1c(Cl)cc(/C=C2\C=Cc3ccccc32)cc1Cl`
N

Write down the call the test reported for this molecule. Item: `Cc1c2ccccc2nc2cc3c(cc12)[C@H]1CC[C@]2(C)C(=O)CC[C@H]2[C@@H]1CC3`
N

Write down the call the test reported for this molecule. Item: `Cc1ccc(C)c2c1sc1nc(N3CCOCC3)c(C#N)c(=O)n12`
N
